The values you see were collected from the supplement of paper PMC6555819.

System: RARa homodimer (NR concentration 270 nM)
experimentalProtocol: PBM binding z-score (relative to random genomic background probes); higher = stronger binding; sequences stand for … in GC…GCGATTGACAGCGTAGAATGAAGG
Use 0.5 as the dividing line for PBM binding z-score, with the line itself on the yes side and lower values as no.

Example results:
| sequenceEntry | assignedCategory |
| --- | --- |
| AGAACGAGTGCAATGAGTTGATAGCACGGGTGGC | no |
| AATACAGGGTCACTAGGCCGGAGTAGGTACGAAT | no |
| ATCTCTAGGTAAGGTTCAGTGAAAGATCGATAGA | yes |

QUERY: Check if PBM binding z-score >= 0.5 (inclusive). Item: AGTCAAAGTTCATCTAGGTAACGTAGGATATGCT
RESULT: yes

QUERY: Another sequence to check: TCTTGTAGACCAATAGAGGTTAAGAAAGTGCGCT
RESULT: no

QUERY: Another sequence to check: AGAATGAGGTTATATGTAGATCAGGGAAGAAAGT
RESULT: yes

QUERY: Another sequence to check: CTACCAAGGTGAACAAGGGCGTTGATTACTATTC
RESULT: no

QUERY: Another sequence to check: CCGACCGGGGCAGAAAGGTTACCATACCATCCGG
RESULT: no

QUERY: Another sequence to check: GCTGCTAGGTCAACTTATGGTCAGCTAAAGCTCG
RESULT: no

QUERY: Another sequence to check: ACTAGTTGGTCAGCTGAGGTCAAACACAATTCGG
RESULT: yes

QUERY: Another sequence to check: CCTACTGGGCTAAAGGTCATTGATTCCAATGCTC
RESULT: yes

QUERY: Another sequence to check: GGAACGAGGGCATTCGAGTTGGTAGCATGGCGAT
RESULT: no

QUERY: Another sequence to check: CTCGAAAGGTCGGTTGAAGTGAGTATACGGATAA
RESULT: no

QUERY: Another sequence to check: ATATGTAGGTTAAGGCTCATTCAGGTTGGTTCGC
RESULT: yes

---

Tested on: THRa:RXRa (NR concentration 90 nM, RXRa partner concentration 90 nM)
experimentalProtocol: PBM binding z-score (relative to random genomic background probes); higher = stronger binding; sequences stand for … in GC…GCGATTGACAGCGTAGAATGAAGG
measuredAttribute: PBM binding z-score
Reply with just the number.

Answered cases to consult:
| sequenceEntry | reportedResult |
| --- | --- |
| CGTCTAAGGTCAGAGAGGTCAGTGAATGCCGAGT | 4.66 |
| TCGAGTAGGTTAGGGGCTTTCAGAATGGCGTCGA | -0.109 |
| ATCGAAAGGTCGGCGAGGTGAGTATACACCGTTT | 3.29 |
| CCTTACCGGTCACTGACAGGTTATAGCATTTGGA | 1 |
| AATACAGGGTCATCGTAGGGCAGAGTACGCACAG | 4.59 |
| CAAACTAGTTCACCGGAAGGTCAAAGTCCGCATG | 3.73 |
| CAGCCTAGATCAGGGCCAGTATAGGAGGAACGTT | -0.634 |
| CGTCCAAGGTCAGCCGGTCAGTGAAAGCGACGTG | 3.58 |
| TCTGCTAGGTCGGTTGGTCAGCTAACGAGCTGCC | -0.409 |
| TCAGACAGGTGAAGGTAACGCAGGTACGCAGTCG | 1.01 |

QUERY: Under THRa:RXRa (NR concentration 90 nM, RXRa partner concentration 90 nM): PBM binding z-score value of CCAGACAGGTGAGAAGGTAAGTCAGCCTCGATTA ?
RESULT: 0.3

QUERY: Another sequence to check: TCGAGTAGGTTAGGGGCCTTCAGAATGGCGTCGA
RESULT: -0.36

---

System: RARg homodimer (NR concentration 270 nM)
experimentalProtocol: PBM binding z-score (relative to random genomic background probes); higher = stronger binding; sequences stand for … in GC…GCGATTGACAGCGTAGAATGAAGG
measuredAttribute: PBM binding z-score
Reply with just the number.

Answered cases to consult:
| sequenceEntry | PBM binding z-score |
| --- | --- |
| ATCTCTAGGTAAGACTCAGTTCAGTGGAGAACGC | 0.403 |
| ACAGACAGTTGAGTGAAGGTAACTCAGCTGGACG | 0.211 |
| ACTAGTTGATCAGCTGAGGTCACACACAATTCGG | 3.35 |
| TGTCAAAGTTCAAAAGTAACGTAAGTATCCACAC | 5.21 |
| ACTATTAGTTGAGACAAGGGCAACCGATAGGTTG | 0.799 |

Now let's try a different one.
QUERY: For the sequence shown here, TAGCCTAGGTCAGATCGGGCCAGAATACGCTATA , give the reported PBM binding z-score.
RESULT: 2.95

---

Tested on: RXRa DBDmut IVT, anti-RXR (DBD mutation: RXRa K156A/R161A, NR concentration 90 nM)
experimentalProtocol: PBM binding z-score (relative to random genomic background probes); higher = stronger binding; sequences stand for … in GC…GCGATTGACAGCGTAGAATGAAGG
PBM binding z-score values, listed per item
Reply with just the number.

Answered cases to consult:
| sequenceEntry | experimentalSystem | reportedResult |
| --- | --- | --- |
| GCTAGTTGGTCAGTAAAAGGTCACATACCGGTCG | RXRa DBDmut IVT, anti-RXR (DBD mutation: RXRa K156A/R161A, NR concentration 90 nM) | 0.819 |
| CAGCCTAGGTCAGGGCCAGCATAGGAGGAACGTT | RXRa DBDmut IVT, anti-RXR (DBD mutation: RXRa K156A/R161A, NR concentration 90 nM) | -0.352 |
| GATACAGGGTCAGCTAGAGGCCAGAGTGTGGAAA | RXRa DBDmut IVT, anti-RXR (DBD mutation: RXRa K156A/R161A, NR concentration 90 nM) | 1.34 |
| TGAATGAGGTTATGAGATCAGGGAACGTTGCAAA | RXRa DBDmut IVT, anti-RXR (DBD mutation: RXRa K156A/R161A, NR concentration 90 nM) | 0.145 |
| GATACAGGGTCAGCTAGAGGACAGAGTATGGAAA | RXRa DBDmut IVT, anti-RXR (DBD mutation: RXRa K156A/R161A, NR concentration 90 nM) | 1.16 |
| ATCTCTAGGTAAAGTTCACTGAAAGATCGATAGA | RXRa DBDmut IVT, anti-RXR (DBD mutation: RXRa K156A/R161A, NR concentration 90 nM) | 2.2 |
| ACTATTAGTTGAGACGAGGGCAAACGATAGGTTG | RXRa DBDmut IVT, anti-RXR (DBD mutation: RXRa K156A/R161A, NR concentration 90 nM) | 0.626 |
| TCGAGTAGGTTACCACTGGGGCATTCAGCTTTCT | RXRa DBDmut IVT, anti-RXR (DBD mutation: RXRa K156A/R161A, NR concentration 90 nM) | 0.044 |

QUERY: For the sequence shown here, ATACCAAGGTGATCTTGAGGTCGTTGATACTAAC , give the reported PBM binding z-score.
RESULT: 1.19

QUERY: Another sequence to check: ATAGAAAGGTCGAGGTGAGTATAGAGAAAGGGAA
RESULT: 0.887

QUERY: Another sequence to check: TTACCAAGGCGAGCTGAGGTCGTTGATCCAACTC
RESULT: 0.038

QUERY: Another sequence to check: TCATATAGGGAATACAGGTGAAAGTCGGCATCTA
RESULT: 1.68

---

System: PPARg DBDmut:RXRa IVT, anti-PPARg (DBD mutation: PPARg1 K132A/R137A, NR concentration 270 nM, RXRa partner concentration 90 nM)
experimentalProtocol: PBM binding z-score (relative to random genomic background probes); higher = stronger binding; sequences stand for … in GC…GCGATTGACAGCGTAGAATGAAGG
PBM binding z-score values, listed per item
Reply with just the number.

| sequenceEntry | PBM binding z-score |
| --- | --- |
| CCTACTAGGCCATTCAGAGGTCATTGATCATATG | 1.66 |
| ATCTCTAGGTAAAGATAGTTCTGTGAATGCAAAT | 0.815 |
| TCATAGAGGTAAAAGGTGAAAGTCGGTGTGGTAA | 0.0344 |
| AGAATGAGGTTACCAAACATCAGGGAAACGCTTG | 1.44 |
| GCTAGTTGGTCAGTAAAAGGTCACACCCCGGTCG | -0.641 |
| CCTTACGGGTCAAGGTCATAGCACGGGTGGTACG | 0.493 |
| ATCTCTAGGAAACAAGTTCAGTGAAAGAGAGGAC | 0.113 |
| AGTAAAAGTTCAGGACGAGGTAACGTAAAGCACG | 0.943 |

QUERY: For the sequence shown here, TTATATAGGTAAACAGGTGAAAGTCCGTAAGTTA , give the reported PBM binding z-score.
RESULT: 2.26

QUERY: Another sequence to check: AGAATGCGGTTATTAAGATCAGGGAATTGCGGTC
RESULT: -0.136

QUERY: Another sequence to check: TCTTGGAGATCAAGCAGGTTAAGAAAGCCTGAGT
RESULT: -0.0417

QUERY: Another sequence to check: TCATATAGGTAAATGCTAGGTGAAACTCCGATCT
RESULT: 0.957
